- procedure_text: Equilibrium solubility of Plinabulin in propylene glycol-D5W diluents (HPLC)
- Assay type: physicochemical
- reported_conditions: propylene glycol-D5W diluent, 25 °C, saline or isotonic, thermodynamic from solid, Test Sample 3 (1:50) dilution level, 73.5 h, read-out: Test Concentration (equilibrium solubility)
reported_endpoint: solubility thermodynamic at 73.5 h (µg/mL)
Give just the number in µg/mL; leave the unit off.

Documented solubility thermodynamic at 73.5 h of CC(C)(C)c1[nH]cnc1/C=c1\[nH]c(=O)/c(=C/c2ccccc2)[nH]c1=O [Plinabulin] : 0.095

----------
- procedure_text: Equilibrium solubility of Plinabulin in propylene glycol-D5W diluents (HPLC)
- Type: physicochemical
- reported_conditions: propylene glycol-D5W diluent, 25 °C, saline or isotonic, thermodynamic from solid, Test Sample 1 (1:20) dilution level, 72 h, read-out: Test Concentration (equilibrium solubility)
reported_endpoint: solubility thermodynamic at 72 h
Lab note: write values as number then unit, every time.

Documented solubility thermodynamic at 72 h of `CC(C)(C)c1[nH]cnc1/C=c1\[nH]c(=O)/c(=C/c2ccccc2)[nH]c1=O` : 0.145 µg/mL
